# assayOverview: small-molecule microarray binders of probe aLefty2, primary screen, biochemical, biotinylated probe, 635/667 nm fluorescence (AID 1094);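 also: score merges spot fluorescence near 667 nm with spot signal-to-noise ratio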
# conditionDetails: higher = more signal
Give fulfilled when the value for composite z-score is at least 0.06. Give not fulfilled when it is less.

compound | classification
CC(=O)NCCCC[C@@H]1NC(=O)[C@@H]2C[C@H](C(=O)O)[C@H](c3cccc(OCCO)c3)N2C1=O | not fulfilled
COc1c(C)cc(-c2cc3c(c(CCc4ccccc4)n2)[Si](C(C)C)(C(C)C)OC3)cc1C | not fulfilled
COc1ccc([Si](C)(C)[C@@H]2[C@@H](CCn3cc(CCO)nn3)O[C@]3(C(=O)N(Cc4ccc(N5C(=O)c6cccc7cccc5c67)cc4)c4ccccc43)[C@H]2C)cc1 | not fulfilled
CC(C)(C)OC(=O)CC[C@@]12N=C(c3ccc(OCCCO)cc3)O[C@@H]1c1ccccc1N(Cc1ccccc1)C2=O | fulfilled
O=C1O[C@H](c2ccccc2)[C@H](c2ccccc2)N2[C@H]1[C@@H](C(=O)NC[C@H](O)c1ccccc1)[C@]1(C(=O)Nc3ccc(C#CC4(O)CCCCCC4)cc31)[C@H]2c1ccc(O)cc1 | fulfilled
COCCCNC(=O)[C@@]1(Cc2ccccc2)N=C(c2ccc(OCCCO)cc2)O[C@H]1c1ccccc1N=[N+]=[N-] | fulfilled
O=C(NC1CC1)[C@@H]1c2ccccc2C(=O)N(Cc2ccccc2C(F)(F)F)[C@H]1c1ccc(CO)cc1 | not fulfilled
C=CC[C@@H](OC(=O)Nc1ccc(SC)cc1)c1ccc(OCCO)cc1 | fulfilled
C=C1C=C(Br)C2(OCCCO2)[C@H]2OC12 (stereo not given in full) | not fulfilled
COCCOC(=O)N1C(=O)[C@@]2(c3cc(C#CCCO)ccc31)[C@H](c1ccccc1OCCO)N1[C@H](c3ccccc3)[C@H](c3ccccc3)OC(=O)[C@H]1[C@@H]2C(=O)NC[C@H](O)c1ccccc1 | not fulfilled
C[N+](C)(C)CCCCNC(=O)[C@@H]1C[C@@H]2C(=O)NCC(=O)N2[C@@H]1c1cccc(OCCO)c1 | not fulfilled
CC(=O)OC(C/C=C\B1OC(C)(C)C(C)(C)O1)c1ccccc1 (stereo not given) | not fulfilled
C=C(C1=CCN(S(=O)(=O)c2ccc(C)cc2)C1)[C@@H](OC(C)=O)[C@@H]1CCCN1S(=O)(=O)c1ccccc1[N+](=O)[O-] | not fulfilled
CCCNC(=O)[C@@H]1c2ccccc2C(=O)N(Cc2cc(C(F)(F)F)cc(C(F)(F)F)c2)[C@H]1c1ccc(CO)cc1 | fulfilled
C=CCNC(=O)[C@H]1[C@@H]2C(=O)O[C@@H](c3ccccc3)[C@@H](c3ccccc3)N2[C@@H](c2ccccc2OCCO)[C@]12C(=O)N(C(=O)OCCOC)c1ccc(C#CCCO)cc12 | fulfilled

---

Reported values of composite z-score for individual entries
# assayOverview: small-molecule microarray binders of probe aDKK1, primary screen, biochemical, biotinylated probe, 635/667 nm fluorescence (AID 1099);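 also: score merges 667nm spot fluorescence with signal to noise across triplicate slides; reference of the scale not given here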
# conditionDetails: higher = more signal

smilesRepr | composite z-score
O=C(NCc1ccccc1)[C@@H]1c2ccccc2C(=O)N(Cc2ccccc2Cl)[C@H]1c1ccc(CO)cc1 | 1
COCCCNC(=O)[C@@]1(C)c2ccccc2C(=O)N(Cc2cc(F)cc(C(F)(F)F)c2)[C@H]1c1ccc(CO)cc1 | 0.612
C=C(C1=CCN(S(=O)(=O)c2ccc(C)cc2)C1)[C@@H](OC(C)=O)[C@@H]1CCCN1S(=O)(=O)c1ccccc1[N+](=O)[O-] | -0.362
COCCOC(=O)N1C(=O)[C@@]2(c3cc(C#CC4(O)CCCCCC4)ccc31)[C@H](c1ccc(O)cc1)N1[C@H](c3ccccc3)[C@H](c3ccccc3)OC(=O)[C@H]1[C@@H]2C(N)=O | 0.106
[N-]=[N+]=NCc1ccccc1C[C@@]1(C(=O)O)N=C(c2ccc(OCCCO)cc2)O[C@@H]1c1ccccc1 | 0.884
C#CCOc1ccc(C[C@H]2C(=O)O[C@H](Cc3ccccc3)[C@H](/C=C/C3CC3)N2CC#C)cc1 | -0.162
O=C(NCC(F)(F)F)[C@@H]1c2ccccc2C(=O)N(C2Cc3ccccc3C2)[C@H]1c1ccc(CO)cc1 | 0.621

---

# assayOverview: binders of probe aFGF10 on microarray, primary screen, stem cell growth factor project, biochemical, small-molecule microarray, fluorescence 635/667 (AID 1071);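 also: score merges 667 nm spot intensity and signal to noise from triplicate slides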
# conditionDetails: higher = more signal

molecule | composite z-score
COCCCNC(=O)[C@@]1(Cc2ccccc2)N=C(c2ccc(OCCCO)cc2)O[C@H]1c1ccccc1N=[N+]=[N-] | 0.727
CCCNC(=O)[C@@H]1c2ccccc2C(=O)N(Cc2cc(C(F)(F)F)cc(C(F)(F)F)c2)[C@H]1c1ccc(CO)cc1 | 0.0859
C=CCC(OC(C)=O)[C@@H]1[C@@H](N(Cc2ccc(-c3ccccc3)cc2)C(=O)c2ccc(-c3ccccc3)cc2)c2cc(OCCCO)ccc2N1C(=O)c1ccc(-c2ccccc2)cc1 (some centres not stated) | -0.0598
O=C(N1CCCCC1)[C@@]1(Cc2ccccc2)N=C(c2ccc(OCCCO)cc2)O[C@H]1c1ccccc1 | 0.235
COCCCNC(=O)[C@@]1(CCS(=O)(=O)c2ccccc2)N=C(c2ccc(OCCCO)cc2)O[C@H]1c1ccccc1CN=[N+]=[N-] | 1.12
[N-]=[N+]=Nc1ccccc1[C@H]1OC(c2ccc(OCCCO)cc2)=N[C@@]1(Cc1ccccc1)C(N)=O | 0.988
C/C=C/[C@@H](CCn1cc(CCO[Si](C(C)C)(C(C)C)C(C)C)nn1)[Si](C)(C)c1ccc(OC)cc1 | -2.29

---

Reported values of composite z-score for individual entries
# Tested on: Wnt5a (protein binding on small-molecule microarray)
# assayOverview: Wnt5a binders on small-molecule microarray, primary screen, biophysical, 635/667 nm fluorescence (AID 1142);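 also: fluorescence read at 667 nm with signal to noise per printed feature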
# conditionDetails: 635 nm fluorescence, higher = more signal
observedProperty: composite z-score

smilesRepr | observedProperty | testValue
Cc1ccc(S[C@]2(C(=O)NCCN3CCOCC3)CC(=O)N(Cc3cc(C(F)(F)F)cc(C(F)(F)F)c3)[C@@H]2c2ccc(CO)cc2)cc1 | composite z-score | 0.322
C=CCC1(CC=C)C[C@H]2CO[C@H](c3ccc(OC)cc3)N2C1=O | composite z-score | -0.125
CCOC(=O)C[C@H]1[C@H](OC(=O)c2cc3ccccc3oc2=O)[C@@H](NC(=O)c2ccccc2)c2cc(OCCCO)ccc2N1C(=O)Cc1ccc(OC)cc1 | composite z-score | 0.146
C=CCNC(=O)[C@H]1[C@@H]2C(=O)O[C@@H](c3ccccc3)[C@@H](c3ccccc3)N2[C@@H](c2ccccc2OCCO)[C@]12C(=O)N(C(=O)OCCOC)c1ccc(C#CCCO)cc12 | composite z-score | 0.641
C=CC[C@@]1(C(=O)NCc2ccccc2)N=C(c2ccc(OCCCO)cc2)O[C@@H]1c1ccccc1 | composite z-score | 0.102
NC(=O)NCC#Cc1ccc2c(c1)[C@]1(C(=O)N2)[C@H](c2ccc(OCCO)cc2)N2[C@H](c3ccccc3)[C@H](c3ccccc3)OC(=O)[C@H]2[C@@H]1C(=O)Nc1nc2ccccc2s1 | composite z-score | 0.151

---

# assayOverview: CREB reporter modulators without forskolin, primary screen, cell-based, PC12, CRE-LacZ reporter, unstimulated (AID 1145)
# conditionDetails: no forskolin, luminescence, 4.5 h, called active from +8 up or from −8 down
Active and inactive are the calls of the source.
Possible outcomes: 1.0 for active, 0.0 for inactive

compound | classification
C=CC[C@]1(C(=O)N(C)C)N=C(c2ccc(OCCCO)cc2)O[C@H]1c1ccccc1CN=[N+]=[N-] | 0.0
C=CCN1C(=O)[C@]2(O[C@H](CCn3cc([C@H](O)c4ccccc4)nn3)[C@@H]([Si](C)(C)c3ccc(OC)cc3)[C@@H]2C)c2cc(N3CCOC3=O)ccc21 | 0.0
COC(=O)C(CC#Cc1ccc2c(c1)[C@]1(C(=O)N2)[C@H](C(=O)O)[C@H]2C(=O)O[C@H](c3ccccc3)[C@H](c3ccccc3)N2[C@@H]1c1ccc(OCCO)cc1)C(=O)OC | 0.0
C=C(COC)C(=O)CC[C@H](OC(=O)c1cccnc1)c1cccc(OCCO)c1 | 0.0
CCCNC(=O)[C@@]1(Sc2ccc(C)cc2)CC(=O)N(Cc2cc(C(F)(F)F)cc(C(F)(F)F)c2)[C@@H]1c1ccc(CO)cc1I | 0.0
C=CCN1C(=O)[C@@]2(O[C@@H](CCO)[C@H]([Si](C)(C)c3ccc(OC)cc3)[C@H]2C)c2cc(N3C(=O)c4cccc5cccc3c45)ccc21 | 1.0
COc1ccc([Si](C)(C)[C@@H]2[C@@H](CC(=O)N3CCC[C@H]3CO)O[C@]3(C(=O)N(Cc4ccc(I)cc4)c4ccccc43)[C@H]2C)cc1 | 0.0
C=CC[C@]1(C(=O)N2CCCCC2)COC(c2ccc(OCCCO)cc2)=N1 | 0.0
COC(=O)C1=CC(CCCO)=CC(C2CC2)N(Cc2cc3c(cc2Br)OCO3)C=C1C(=O)OC (stereo not given) | 0.0
Cc1ccc(S[C@]2(C(=O)NC3CC3)CC(=O)N(Cc3ccccc3C(F)(F)F)[C@@H]2c2ccc(CO)cc2I)cc1 | 0.0
C=C(C(=O)CC[C@@H](OC(C)=O)c1ccccc1OCCO)C(C)C | 0.0
C=C(C1=CCN(S(=O)(=O)c2ccc(C)cc2)C1)[C@@H](OC(C)=O)[C@@H]1CCCN1S(=O)(=O)c1ccccc1[N+](=O)[O-] | 0.0
C=C(COC)/C(=C/C[C@H](OC(C)=O)c1cccc(OCCO)c1)c1cc(C(=O)OC)ccc1OC | 1.0
COc1ccc(C(=O)Nc2cccc(CN3C(=O)[C@@]4(O[C@@H](CCO)[C@H]([Si](C)(C)c5ccc(OC)cc5)[C@H]4C)c4ccccc43)c2)cc1 | 0.0
C=CCC(OC(C)=O)[C@@H]1[C@@H](N(Cc2cccc3ccccc23)C(=O)c2cccc3ccccc23)c2cc(OCCCO)ccc2N1C(=O)Cc1ccc(OC)cc1 (stereo not given in full) | 0.0
